Below is a list of entries, each paired with its recorded log10 IC50 value.
- tested target: BCL6-NCOR2(SMRT) corepressor protein-protein interaction (Homo sapiens (Human), UniProt P41182)
- protocol details: NanoBRET cell assay in transfected HEK293T cells
- Format: cell-based
- assay setup: further generated data (Table 2b); HEK293T cells, 6 hr; read-out: NanoBRET cell pIC50 (converted)
Values reflect log10 of reported IC50 (µM).

{"columns": ["compound", "data value"],
 "data": [
  ["CC(Nc1nc(=O)n(C)c2ccc(Nc3nc(N4CCC(C(=O)N(C)C)CC4)ncc3Cl)cc12)c1ncccn1 (stereo not drawn) [Example 12d]", 1.05]
]}

State the recorded log10 IC50 for this entry: CC(Nc1cc(=O)n(C)c2ccc(Nc3cc(N4CCC(C(=O)N(C)C)CC4)ncc3Cl)cc12)c1ncccn1 (stereo not drawn) [Example 15g]
0.86

State the recorded log10 IC50 for this entry: C[C@@H]1CN(c2ncc(Cl)c(Nc3ccc4c(c3)c(NC(C)(C)c3ncccn3)cc(=O)n4C)n2)C[C@H](C)O1 [Example 12f]
0.39

State the recorded log10 IC50 for this entry: Cn1c(=O)cc(NC(C)(C)c2ncccn2)c2cc(Nc3cc(C(=O)N4CCC4)nc(Cl)c3C#N)ccc21
-0.26

State the recorded log10 IC50 for this entry: CC(Nc1cc(=O)n(C)c2ccc(Nc3cc(C(=O)N4CC(C(F)(F)F)C4)nc(Cl)c3C#N)cc12)c1ncc(C2CC2)cn1 (stereo not drawn)
0.72

State the recorded log10 IC50 for this entry: Cn1c(=O)cc(NC(C)(C)c2ncc(C3CC3)cn2)c2cc(Nc3cc(C(=O)N4CCC4)nc(Cl)c3C#N)ccc21
-0.13
